Would you kindly list pEC50 for each of these compounds?
target: GLP-1R (Homo sapiens, UniProt P43220); experiment: GLP-1R activation: cAMP increase in CHO cells stably expressing GLP-1R; format: cell-based; conditions: cAMP increase, CHO cells stably expressing GLP-1R, 10 point dose response, 30 minutes incubation; read-out: EC50
Sequence (P43220 24-463): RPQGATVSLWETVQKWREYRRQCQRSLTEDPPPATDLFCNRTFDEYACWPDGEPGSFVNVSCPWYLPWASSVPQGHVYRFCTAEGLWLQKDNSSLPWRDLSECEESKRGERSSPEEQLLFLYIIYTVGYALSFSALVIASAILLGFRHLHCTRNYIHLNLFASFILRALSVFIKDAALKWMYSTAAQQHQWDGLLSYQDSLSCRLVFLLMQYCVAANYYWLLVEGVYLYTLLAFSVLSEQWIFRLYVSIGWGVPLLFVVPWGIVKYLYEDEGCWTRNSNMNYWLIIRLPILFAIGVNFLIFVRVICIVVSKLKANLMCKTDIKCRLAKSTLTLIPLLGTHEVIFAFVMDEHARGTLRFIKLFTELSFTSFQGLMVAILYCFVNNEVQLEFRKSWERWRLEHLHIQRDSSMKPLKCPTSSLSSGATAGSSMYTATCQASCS
Formally, pEC50 is defined as -log10 of the concentration c, with c in mol/L.

pEC50 measured on N#Cc1ccc(COc2cccc(-c3cc(F)c(Cc4nc5ccc(C(=O)O)cc5n4Cc4ccon4)cc3F)n2)c(F)c1 [Example 486] = 8.98

The value of pEC50 measured for the compound COCCn1c(Cc2c(F)cc(-c3ccnnc3OCc3ccc(C#N)cc3F)cc2F)nc2ccc(C(=O)O)cc21 [Example 103] turned out to be 5.30

pEC50 measured on N#CCC1(Cn2c(Cc3ccc(-c4ccc(F)c(OCc5ccc(C#N)cc5F)n4)c(F)c3)nc3ccc(C(=O)O)cc32)CC1 [Example 95] = 9.59

So, N#Cc1ccc(COc2cccc(-c3cc(F)c(Cc4nc5ccc(C(=O)O)cc5n4[C@H]4CCCOC4)cc3F)n2)c(F)c1 [Example 545] ? Its pEC50 was 8.16
